Kindly supply the reported TR-FRET signal values for the records listed here.
Biological target: MAGE-A11:PCF11 (Homo sapiens (Human), UniProt P43364)
Sequence (P43364 218-429): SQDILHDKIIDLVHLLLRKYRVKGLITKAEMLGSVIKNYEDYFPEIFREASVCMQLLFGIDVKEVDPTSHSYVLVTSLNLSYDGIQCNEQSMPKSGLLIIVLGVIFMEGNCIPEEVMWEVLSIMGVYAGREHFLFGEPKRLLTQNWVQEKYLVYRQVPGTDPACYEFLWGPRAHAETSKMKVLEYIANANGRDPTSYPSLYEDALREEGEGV
Test: TR-FRET single point screening at 15 μM
Assay type: binding
Parameters: unit not given here
Details: single point TR-FRET screening at 15 μM against MAGE-A11:PCF11
Excerpt: TR-FRET Assays and High-throughput Screen. Terbium-anti-GST antibody, 1 M Tris pH 7.5 1 M MgCl2 and 1 M DTT were purchased from Invitrogen (Carlsbad, CA), BSA was purchased from Sigma (St. Louis, MO). Dimethyl sulfoxide (DMSO) was purchased from Fisher Scientific (Pittsburgh, PA). Black 384-well low volume plates and 384-well polypropylene compound plates were purchased from Corning Incorporated (Tewksbury, MA). […]
Just the number, please, no unit attached.

IN: What TR-FRET signal value was documented for this compound, CCCN(CCCNc1c2ccc(Cl)cc2nc2ccc(OC)cc12)Cc1ccccc1C(=O)O ?
OUT: −258.6

IN: Could you do the same for CCN1CCN(c2c(S(=O)(=O)c3ccc(C)cc3)cnc3ccc(OC)cc23)CC1 , please?
OUT: −3.917

IN: Could you do the same for CCCCN(CCC)CCCNc1c2ccc(Cl)cc2nc2ccc(OC)cc12 , please?
OUT: −286.9

IN: Could you do the same for COc1ccc2nc3cc(Cl)ccc3c(NCCCNCc3cc(OC(F)(F)F)ccc3OC)c2c1 , please?
OUT: −231.8

----------
Biological target: interaction between GST-MAGEA11 MHD and FAM-PCF11_4 peptide (MAGE-A11:PCF11) (Homo sapiens (Human))
Experiment: TR-FRET dose response competition assay for disruption of MAGE-A11:PCF11 binding
Settings: Dose response TR-FRET screening of nine scaffold groups against MAGE-A11:PCF11; read-out: consensus IC50
assay_readout: IC50
Please give the number followed by its unit.

IN: What IC50 value was documented for this compound, CC(C)(C)C(=O)CSc1nc2cc(-c3ccccc3)sc2c(=O)n1CCN1CCOCC1 [SJ000451590-1] ?
OUT: 69.9 µM

IN: Could you do the same for Cc1ccc(S(=O)(=O)c2nc(-c3ccccc3Cl)oc2N2CCOCC2)cc1 [SJ000230856-1] , please?
OUT: 4.34 µM

IN: Could you do the same for COc1cc(Cc2ccc3c(NCCCNCc4cccc5c4OCO5)ccnc3c2)cc(OC)c1 [SJ000311312-1] , please?
OUT: 31.3 µM

IN: Could you do the same for CCOc1ccc(-c2nc3c(c(=O)[nH]c(=O)n3Cc3ccccc3)n2C)cc1 [SJ000389476-1] , please?
OUT: 69.9 µM

IN: Could you do the same for COc1ccc(F)cc1CNCCCNc1ccnc2cc(CC3CCCCC3)ccc12 [SJ000311253-1] , please?
OUT: 26.3 µM

IN: Could you do the same for CCCCn1c(=O)[nH]c(=O)c2c1nc(-c1ccc(OC(F)(F)C(F)C(F)(F)F)cc1)n2O (centres unmarked) [SJ000378966-1] , please?
OUT: 69.9 µM

IN: Could you do the same for CCCn1c(=O)[nH]c(=O)c2c1nc(-c1ccc(OC(F)F)cc1)n2CCN1CCOCC1 [SJ000377779-1] , please?
OUT: 69.9 µM

IN: Could you do the same for COc1cccc(CNCCCNc2ccnc3cc(Cc4ccccc4)ccc23)c1O [SJ000311307-1] , please?
OUT: 69.9 µM
